Cited source: ChEMBL document CHEMBL1159186

target: Epidermal growth factor receptor (Homo sapiens); experiment: Inhibition of tyrosine kinase Epidermal growth factor receptor
Sequence (P00533 whole entry): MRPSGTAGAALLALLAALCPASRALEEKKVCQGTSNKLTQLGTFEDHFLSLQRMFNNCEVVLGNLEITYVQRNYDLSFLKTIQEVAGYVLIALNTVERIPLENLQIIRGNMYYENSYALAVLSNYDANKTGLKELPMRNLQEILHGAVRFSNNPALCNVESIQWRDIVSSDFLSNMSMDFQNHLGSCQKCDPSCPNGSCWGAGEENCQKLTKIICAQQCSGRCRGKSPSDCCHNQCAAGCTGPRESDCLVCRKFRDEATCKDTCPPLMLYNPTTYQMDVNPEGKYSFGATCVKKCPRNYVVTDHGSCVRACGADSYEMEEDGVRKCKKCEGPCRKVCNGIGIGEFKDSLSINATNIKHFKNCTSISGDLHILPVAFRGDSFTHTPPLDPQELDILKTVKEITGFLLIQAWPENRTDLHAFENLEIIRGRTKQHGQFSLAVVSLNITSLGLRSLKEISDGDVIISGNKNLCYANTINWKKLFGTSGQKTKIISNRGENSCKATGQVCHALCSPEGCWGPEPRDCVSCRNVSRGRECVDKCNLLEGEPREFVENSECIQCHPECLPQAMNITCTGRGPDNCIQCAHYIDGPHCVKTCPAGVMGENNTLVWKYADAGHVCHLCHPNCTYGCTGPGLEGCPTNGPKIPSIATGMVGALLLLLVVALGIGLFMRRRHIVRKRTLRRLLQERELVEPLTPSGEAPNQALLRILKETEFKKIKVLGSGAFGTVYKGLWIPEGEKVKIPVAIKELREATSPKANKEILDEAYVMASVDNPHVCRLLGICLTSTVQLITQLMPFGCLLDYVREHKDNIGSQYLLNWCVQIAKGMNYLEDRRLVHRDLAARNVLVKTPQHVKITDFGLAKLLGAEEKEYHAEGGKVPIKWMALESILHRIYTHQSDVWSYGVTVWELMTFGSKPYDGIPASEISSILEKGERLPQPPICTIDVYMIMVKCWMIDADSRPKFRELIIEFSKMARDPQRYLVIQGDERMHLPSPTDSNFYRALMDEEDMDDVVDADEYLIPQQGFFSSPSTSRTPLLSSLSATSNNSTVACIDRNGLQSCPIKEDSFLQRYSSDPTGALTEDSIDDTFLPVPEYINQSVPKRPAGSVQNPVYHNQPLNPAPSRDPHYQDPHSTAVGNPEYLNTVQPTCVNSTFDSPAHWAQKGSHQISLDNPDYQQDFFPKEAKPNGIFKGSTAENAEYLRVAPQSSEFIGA
property.label: IC50

Recorded results for 3 molecules are shown here.
Cc1ccc(NC(=O)c2ccccc2)cc1Nc1nccc(-c2cccs2)n1 : > 100 µM
Cc1ccc(N(C)C(=O)c2ccccc2)cc1Nc1nccc(-c2cccnc2)n1 : 49 µM
COc1ccc(NC(=O)c2ccccc2)cc1Nc1nccc(-c2cccnc2)n1 : > 100 µM

// sample Cc1ccc(N(C(=O)c2ccccc2)C(=O)c2ccccc2)cc1Nc1nccc(-c2cccnc2)n1 , its IC50 was 75 µM

// sample Cc1ccc(NC(=O)c2ccc3ccccc3c2)cc1Nc1nccc(-c2cccnc2)n1 , its IC50 was > 100 µM

// sample Cc1ccc(C(=O)Nc2ccc(C)c(Nc3nccc(-c4cccnc4)n3)c2)cc1 , its IC50 was > 100 µM

// sample CC(=O)Nc1ccc(C)c(Nc2nccc(-c3cccnc3)n2)c1 , its IC50 was > 100 µM

// sample O=C(Nc1cccc(Nc2nccc(-c3cccnc3)n2)c1)c1ccccc1 , its IC50 was > 50 µM
